Below is a list of entries, each paired with its recorded EC50 value.
Biological target: mouse kappa opioid receptor (mKOR) (Mus musculus, UniProt P33534)
Construct: Stimulation of Endogenous Mouse Kappa-Opioid Receptor in R1.G1 Cells
Sequence (P33534 whole entry): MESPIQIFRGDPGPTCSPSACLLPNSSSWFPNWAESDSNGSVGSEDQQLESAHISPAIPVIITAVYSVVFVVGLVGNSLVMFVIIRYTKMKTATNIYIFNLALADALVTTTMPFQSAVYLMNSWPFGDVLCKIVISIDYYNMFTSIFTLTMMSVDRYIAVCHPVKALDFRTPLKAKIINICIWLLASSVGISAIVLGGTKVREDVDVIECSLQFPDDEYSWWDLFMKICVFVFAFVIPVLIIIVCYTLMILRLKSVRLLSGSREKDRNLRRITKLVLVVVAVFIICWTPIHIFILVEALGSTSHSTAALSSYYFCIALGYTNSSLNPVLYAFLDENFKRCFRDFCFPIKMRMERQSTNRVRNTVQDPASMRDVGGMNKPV
Assay: cell-based
Square brackets hold non-standard residues; d marks the D form. Side chains are listed from the residue outwards. Peptide text beside a SMILES is read from it. * marks the point of attachment. Piperidinyl(4-(1-Pro-OH)) = O=C(O)[C@@H]1CCCN1C1CCN(*)CC1; Homopiperazine(4-amidino) = N=C(N)N1CCCN(*)CC1; dAgb = N=C(N)NCC[C@@H](N)C(=O)O; dAgp = N=C(N)NC[C@@H](N)C(=O)O; Api = NC1(C(=O)O)CCNCC1
Your answer should be a plain number; it is taken to be in nM.

Recorded EC50, per entry:
CC(C)C[C@@H](NC(=O)[C@@H](Cc1ccccc1)NC(=O)[C@H](N)Cc1ccccc1)C(=O)N[C@H](CCCN)C(=O)N1CCC(N)(C(=O)O)CC1 : 0.041
CC(C)C[C@@H](NC(=O)[C@@H](Cc1ccccc1)NC(=O)[C@H](N)Cc1ccccc1)C(=O)N[C@H](CCNC(=N)N)C(=O)N1CCC(N2CCC[C@H]2C(=O)O)CC1 [Compound (13)] (H-[dF][dF][dL][dAgb]-{Piperidinyl(4-(1-Pro-OH))}) : 0.032
CC(C)C[C@@H](NC(=O)[C@@H](Cc1ccccc1)NC(=O)[C@H](N)Cc1ccccc1)C(=O)N[C@H](CCCCN)C(=O)N1CCN(S(=O)(=O)N(C)C)CC1 : 0.193
CC(C)C[C@@H](NC(=O)[C@@H](Cc1ccccc1)NC(=O)[C@H](N)Cc1ccccc1)C(=O)N[C@H](CCCN)C(=O)NCCN1CCN(CC(N)=O)CC1 : 0.115
CNCCC[C@@H](NC(=O)[C@@H](CC(C)C)NC(=O)[C@@H](Cc1ccccc1)NC(=O)[C@H](N)Cc1ccccc1)C(=O)N1CCCN(C(=N)N)CC1 : 0.078
CC(C)C[C@@H](NC(=O)[C@@H](Cc1ccccc1)NC(=O)[C@H](N)Cc1ccccc1)C(=O)N[C@H](CNC(=N)N)C(=O)N1CCCN(C(=N)N)CC1 [Compound (18)] (H-[dF][dF][dL][dAgp]-{Homopiperazine(4-amidino)}) : 1.02

# input Report EC50 for CC(C)C[C@@H](NC(=O)[C@@H](Cc1ccccc1)NC(=O)[C@H](N)Cc1ccccc1)C(=O)N[C@H](CCNC(=N)N)C(=O)NC1(C(=O)O)CCN(C(=O)[C@@H](CCNC(=N)N)NC(=O)[C@@H](CC(C)C)NC(=O)[C@@H](Cc2ccccc2)NC(=O)[C@H](N)Cc2ccccc2)CC1 [Compound (88)] (H-[dF][dF][dL][dAgb][Api]([dAgb-dL-dF-dF])-OH)
# output 13.8

# input Respond only with EC50 recorded for `CC(C)C[C@@H](NC(=O)[C@@H](Cc1ccccc1)NC(=O)[C@H](N)Cc1ccccc1)C(=O)N[C@H](CCCCN)C(=O)N1CCC(N)(C(=O)O)CC1`
# output 0.048

# input In one line, give reported EC50 of the entry `CC(C)C[C@@H](NC(=O)[C@@H](Cc1ccccc1)NC(=O)[C@H](N)Cc1ccccc1)C(=O)N[C@H](CCCN)C(=O)NCCCC[C@H](NC(=O)[C@H](N)CCCN)C(=O)N1CCNCC1` .
# output 0.05

Taken from patent US7713937B2.
